- assayed.target: T1, Human Nectin-4 (human, UniProt Q96NY8 32-349, limits assumed)
- T1 construct: Protein immobilised on the SPR chip; also called target protein
- T1 sequence: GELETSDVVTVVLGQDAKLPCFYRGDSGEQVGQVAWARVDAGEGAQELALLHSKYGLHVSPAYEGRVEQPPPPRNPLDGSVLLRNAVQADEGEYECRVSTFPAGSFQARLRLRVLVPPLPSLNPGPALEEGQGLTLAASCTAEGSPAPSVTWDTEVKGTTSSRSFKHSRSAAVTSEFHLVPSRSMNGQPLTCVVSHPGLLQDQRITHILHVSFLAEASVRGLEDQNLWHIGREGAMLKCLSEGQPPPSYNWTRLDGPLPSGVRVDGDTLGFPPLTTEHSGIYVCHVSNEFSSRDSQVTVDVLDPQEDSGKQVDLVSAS
- assay.text: Table 2B (DELFIA or SPR)
Bridges are numbered along the chain shown (N, C = ends). Primed or numbered codes have the meaning given here. [ ]: non-standard residue; d: D form. The star is where a group is joined. Biotin = O=C1N[C@H]2[C@H](CS[C@H]2CCCCC(=O)*)N1; Cit = NC(=O)NCCC[C@H](N)C(=O)O; PEG4″ = 4(ethylene glycol)
Kd less than 3 nM is 1; Kd greater than or equal to 3 nM is 0.

Completed entries (count: 4):
# binder, discrete.label
measured = [
    ("{Biotin-PEG4″}-CEYDEEFFTALA[Cit]LRGDDICSYIQAKFQYLPGLCIEEILDNLGCS-OH (designed binder, disulfide 1-34, 20-44) [C172]", 1),
    ("Ac-CEYDEEFFLGLKRLRGGDICYYIKKKFKKVPELCIEEILKKLGC-OH (designed binder, disulfide 1-34, 20-44) [C67]", 1),
    ("{Biotin-PEG4″}-CEYDGEFFTALARLRGADICEYIQAKFQYYPGLCIEEILDNLGCS-OH (designed binder, disulfide 1-34, 20-44) [C144]", 0),
    ("{Biotin-PEG4″}-CEYDEQFFTALKRLRGGDICYYISAQFNTLPDLCIEEILENLGC-OH (designed binder, disulfide 1-34, 20-44) [C103]", 0),
]

Okay, next one:
Q) Just wondering, is Kd of {Biotin-PEG4″}-CEYDEEFFTALARLRGDDICSYIQAKFQYLPGLCIEEILDNLGCS-OH (designed binder, disulfide 1-34, 20-44) [C143] below 3 nM?
A) 1
